Reference source: the supplement of paper PMC7125110

B1: glmS ribozyme (parent)
chain: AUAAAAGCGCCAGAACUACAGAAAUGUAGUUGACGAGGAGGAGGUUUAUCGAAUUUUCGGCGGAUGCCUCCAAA

Variants of: B1
Assay: self-cleavage kobs at 40 uM GlcN6P; higher = faster cleavage; RNA array
Details: with glucosamine-6-phosphate
Fewer inactive variants are shown than the library holds.
Measure: self-cleavage kobs at 40 uM GlcN6P

# Mutation List, Measure, Result
records = [
    ("G35A U56A G63A", "self-cleavage kobs at 40 uM GlcN6P", "< 1e-05 s⁻¹"),
    ("G66A C71A", "self-cleavage kobs at 40 uM GlcN6P", "0.000146 s⁻¹"),
    ("C8U C10A", "self-cleavage kobs at 40 uM GlcN6P", "< 1e-05 s⁻¹"),
    ("G13A A14G", "self-cleavage kobs at 40 uM GlcN6P", "3.73e-05 s⁻¹"),
    ("U47C G66C", "self-cleavage kobs at 40 uM GlcN6P", "< 1e-05 s⁻¹"),
    ("A42G U45C", "self-cleavage kobs at 40 uM GlcN6P", "5.93e-05 s⁻¹"),
    ("U56C G59C C68G", "self-cleavage kobs at 40 uM GlcN6P", "< 1e-05 s⁻¹"),
    ("C16G A42U", "self-cleavage kobs at 40 uM GlcN6P", "< 1e-05 s⁻¹"),
    ("G29U U30G C34U", "self-cleavage kobs at 40 uM GlcN6P", "< 1e-05 s⁻¹"),
    ("C10U G35C A52U", "self-cleavage kobs at 40 uM GlcN6P", "< 1e-05 s⁻¹"),
    ("G29U C50G G60U C67A", "self-cleavage kobs at 40 uM GlcN6P", "9.35e-05 s⁻¹"),
    ("A52G C67U", "self-cleavage kobs at 40 uM GlcN6P", "2.66e-05 s⁻¹"),
    ("A6C A42C", "self-cleavage kobs at 40 uM GlcN6P", "< 1e-05 s⁻¹"),
    ("A15G G43A", "self-cleavage kobs at 40 uM GlcN6P", "< 1e-05 s⁻¹"),
    ("U46C G60A", "self-cleavage kobs at 40 uM GlcN6P", "< 1e-05 s⁻¹"),
    ("A14G G32A", "self-cleavage kobs at 40 uM GlcN6P", "0.000266 s⁻¹"),
    ("C10U A33C U47G G51U C58G A64U C70A", "self-cleavage kobs at 40 uM GlcN6P", "7.66e-05 s⁻¹"),
    ("A39U G66U C67U", "self-cleavage kobs at 40 uM GlcN6P", "3.54e-05 s⁻¹"),
    ("A6G C10U A39G C58A", "self-cleavage kobs at 40 uM GlcN6P", "< 1e-05 s⁻¹"),
    ("U30A U45A", "self-cleavage kobs at 40 uM GlcN6P", "0.000369 s⁻¹"),
    ("A33G G40U G43A U49A C58U", "self-cleavage kobs at 40 uM GlcN6P", "< 1e-05 s⁻¹"),
    ("C11G A12C G38A", "self-cleavage kobs at 40 uM GlcN6P", "< 1e-05 s⁻¹"),
    ("G35A U47C", "self-cleavage kobs at 40 uM GlcN6P", "< 1e-05 s⁻¹"),
    ("G32A A53U", "self-cleavage kobs at 40 uM GlcN6P", "3.74e-05 s⁻¹"),
    ("G35C U49A", "self-cleavage kobs at 40 uM GlcN6P", "< 1e-05 s⁻¹"),
    ("G41A U46G C70U", "self-cleavage kobs at 40 uM GlcN6P", "0.000436 s⁻¹"),
    ("G38C C67U", "self-cleavage kobs at 40 uM GlcN6P", "< 1e-05 s⁻¹"),
    ("C58A G62A", "self-cleavage kobs at 40 uM GlcN6P", "< 1e-05 s⁻¹"),
    ("G32U G62U", "self-cleavage kobs at 40 uM GlcN6P", "< 1e-05 s⁻¹"),
    ("A12C U56G C68A C70A", "self-cleavage kobs at 40 uM GlcN6P", "< 1e-05 s⁻¹"),
    ("G60U C67G", "self-cleavage kobs at 40 uM GlcN6P", "< 1e-05 s⁻¹"),
    ("A48G C50G C61A", "self-cleavage kobs at 40 uM GlcN6P", "9.98e-05 s⁻¹"),
    ("U47A U49C", "self-cleavage kobs at 40 uM GlcN6P", "< 1e-05 s⁻¹"),
    ("G40U U54A", "self-cleavage kobs at 40 uM GlcN6P", "7.88e-05 s⁻¹"),
    ("A33U A64U", "self-cleavage kobs at 40 uM GlcN6P", "< 1e-05 s⁻¹"),
    ("G13C G43U", "self-cleavage kobs at 40 uM GlcN6P", "< 1e-05 s⁻¹"),
]
